system: OVCAR-5 ovarian; assay: NCI tumour cell line growth inhibition, 48 h; in the data active = GI50 below about 0.43 µM; inactive = the rest
Respond only with the outcome that fits, drawn from active, inactive

Answered examples (6):
C(=C\c1ccncc1)/c1ccncc1 ... inactive
C[C@@H](CS[As](C)C)C(=O)N1CCC[C@H]1C(=O)O ... inactive
Oc1ccc(Cl)cc1Sc1cc(Cl)ccc1O ... inactive
Cc1cc(-c2nc3n(c2/C=N/N=C(N)N)CCS3)c(C)s1 ... inactive
Cc1cc2c3c([n+](C)c4ccc(F)cc4c3c1)-c1cc(F)ccc1N2C ... inactive
CC1=NN(c2cccc(Cl)c2)C(=O)/C1=C\C=C\c1ccccc1 ... inactive

query: Could you kindly confirm the outcome this assay logged for Cc1c(Cl)cccc1NC(=O)c1sc2nc3c(cc2c1N)C(=O)CCC3 ?
result: active

query: Could you kindly confirm the outcome this assay logged for COC(=O)c1c2c(c(C)[n+]([O-])c1C)C(=O)C(NCc1ccc(F)cc1)=CC2=O ?
result: inactive

query: Could you kindly confirm the outcome this assay logged for CNCC(=O)NC(CO)C(=O)NC(CO)C(=O)NC1C(C(N)=O)OC(n2ccc(N)nc2=O)C(O)C1O (configuration not stated) ?
result: inactive

query: Could you kindly confirm the outcome this assay logged for CC(C)c1[nH]nc2c(NCc3ccc(-c4ccccn4)cc3)nc(SCCN(C)C)nc12 ?
result: active

query: Could you kindly confirm the outcome this assay logged for c1cc(C2CCCCC2)ccc1-c1cnc2nonc2n1 ?
result: inactive

query: Could you kindly confirm the outcome this assay logged for O=C(CSC(c1ccccc1)c1ccccc1)N/N=C/c1ccccc1Cl ?
result: inactive

query: Could you kindly confirm the outcome this assay logged for COC(=O)c1ccc(NC(=O)c2ccc(NC3=C(Cl)C(=O)N(Cc4ccccc4)C3=O)cc2)cc1 ?
result: inactive

query: Could you kindly confirm the outcome this assay logged for COc1ccc2c(CCCc3ccc(Cl)cc3Cl)c3[n+](cc2c1OC)CCc1cc2c(cc1-3)OCO2 ?
result: inactive

query: Could you kindly confirm the outcome this assay logged for C=C1C(=O)O[C@H]2[C@H]1CC/C(COC(=O)CCCCCCCC(=O)OC/C1=C/CC[C@@]3(C)O[C@H]3[C@H]3OC(=O)C(=C)[C@@H]3CC1)=C\CC[C@@]1(C)O[C@@H]21 ?
result: inactive

query: Could you kindly confirm the outcome this assay logged for Cc1ccc(-c2c3c(nn2-c2ccc(S(=O)(=O)NC(=O)NC4CCCCC4)cc2)-c2ccccc2C3)cc1 ?
result: inactive

query: Could you kindly confirm the outcome this assay logged for CC(C)(O)CCc1cccc(C(=O)c2cnn(-c3ccc(F)cc3)c2N)c1 ?
result: inactive

Values from PubChem BioAssay (NCI)
